Internalization EC50 listing for selected binders.
- testSystem: T1, human LIV-1 (human, UniProt Q13433 29-755)
- T1 sequence (looked up): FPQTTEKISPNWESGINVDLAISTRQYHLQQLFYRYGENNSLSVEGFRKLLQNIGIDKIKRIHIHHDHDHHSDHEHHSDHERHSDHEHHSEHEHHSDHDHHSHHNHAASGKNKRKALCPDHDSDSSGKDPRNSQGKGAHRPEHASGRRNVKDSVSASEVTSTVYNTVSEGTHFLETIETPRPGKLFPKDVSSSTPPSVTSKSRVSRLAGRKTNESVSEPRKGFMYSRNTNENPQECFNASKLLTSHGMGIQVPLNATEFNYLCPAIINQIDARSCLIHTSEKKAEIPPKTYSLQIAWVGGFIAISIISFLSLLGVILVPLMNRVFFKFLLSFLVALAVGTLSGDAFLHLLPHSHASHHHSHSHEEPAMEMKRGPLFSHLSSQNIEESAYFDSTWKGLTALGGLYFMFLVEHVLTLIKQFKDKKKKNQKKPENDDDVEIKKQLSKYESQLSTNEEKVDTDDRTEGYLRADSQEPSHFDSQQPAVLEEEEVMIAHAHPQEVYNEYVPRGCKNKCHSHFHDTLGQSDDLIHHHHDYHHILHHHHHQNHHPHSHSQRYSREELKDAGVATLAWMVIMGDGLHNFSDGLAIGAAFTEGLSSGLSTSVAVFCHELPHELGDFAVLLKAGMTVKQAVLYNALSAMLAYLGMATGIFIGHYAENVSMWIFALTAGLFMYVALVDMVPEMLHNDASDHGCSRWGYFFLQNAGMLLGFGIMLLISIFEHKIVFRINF
- assayOverview: cell-based or functional assay
All answers are understood in nM, so give the number only.

Record summary for 124H4D11 (antibody, V domains shown, Tested as chimeric antibody) VH: EVPLQQSGAELVRSGASVKLSCTASGFNIKDYYMHWVKQRPEQGLEWIGWIDPENGDTEYDPKFQGKATMTADTSSNTADLQLSSLTSEDTAVYYCNARYYAFDYWGQGTTLTVSS VL: DVLMTQTPLSLPVSLGDQASISCRSSQSIVHSNGNTYLEWYLQKPGQSPKLLIYKVSNRFSGVPDRFSGSGSGTEFTLKISRVEAEDLGVYYCFQGSQVPPTFGGGTRLEIK : reported Internalization EC50 = 4.3

Given item 248H1G3 (antibody, V domains shown, Tested as chimeric antibody) VH: EVQLQQSGPELMKRGASVKISCKTSTFTFTEFTIHWVKQSHGKSLEWIGGINPNTGGTSYNQNFTGKATLTVDKSSITAYMELRSLTSEDSAIYYCAPNWDGYWFFDVWGAGTTVTVSS VL: DIQMTQSPASLSASVGETVTITCRASGNIQNYLAWYQQKQGKSPQLLVYGAKTLADGVPSRFSGSGSGTQFSLKINSLQPEDFGSYYCQHFWSPPLTFGAGTKLELK , the value recorded as its Internalization EC50 is 4.6

Data point: 56B3E6 (antibody, V domains shown, Tested as chimeric antibody) VH: EVQLQQSGAELVRSGASVKLSCTASGFNIKDYYIHWVKQRPEQGLEWIGWIDPENDDTEYAPKFQGKATMTADTSSNTAYLHLSSLTSEDTAVYYCPHGGGFRVFDSWGQGTTLTVSS VL: DVLMTQTPLSLPVSLGDQASISCRSSQDIVHSNGNTYLEWYLQKPGQSPKLLIYKVSNRFSGVPDRFSGSGSGTDFTLKISRVEAEDLGVYYCFQGSHVPWTFGGGTKLEIK ; Internalization EC50 = 5

get_value(item= 72B12F1 (antibody, V domains shown, Tested as chimeric antibody) VH: EVQLQQSGAELVKPGASVKLSCTASGFNIKDTYMHWVKQRPEQGLEWIGRIDPANGNTKNDPRFQGKATITADTSSNTAYLQLSRLTSEDTAVYYCAGGGITTVVPDHWGQGTTLTVSS VL: DVVMTQTPLSLPVSLGDQASISCRSSQSLVHSNGNTYLQWYLQKPGQSPKLLIYKVSNRFSGVPDRFSGSGSGTDFTLKISRVEAEDLGVYFCSQSTHVPYTFGGGTKLEIK , readout=Internalization EC50) returns 7.2

Entry under test: 135C6E7 (antibody, V domains shown, Tested as chimeric antibody) VH: EVQLVESGGGLVQPKGSLKLSCAASGFTFNTYAMNWVRQAPGKGLEWVARIRSKYNSYATYYADSVKDRFTISRDDSQSILYLQMNNLKTEDTAMYYCVRHEDYDGGFAYWGQGTLVTVSA VL: DIVMSQSPSSLAVSVGEKVTMSCKSSQSLFKSRTRKNYLAWYQQKPGQSPKLLIYWASTRESGVPDRFTGSGSGTDFTLTISSVQAEDLAVYYCKESYNLMYTFGGGTKLEIK . Its Internalization EC50 was 12.4
